From: patent US20040037843A1

biological target: HLA-A*0201 (Homo sapiens, UniProt P04439, D140Y/D185E/D98H/E176V/E277Q/G131W/G231S/I119V/I121R/I166T/I218V/L300P/L318F/N151K/N90K/P208A/P217A/Q86G/Q94H/R138H/R169H/T345S); assay: HLA class I binding assay, purified HLA, inhibition of 125I-labelled probe peptide; details: A*[…], A2 supermotif cross-reactive binding data
pIC50: −log10 of the molar value.
recorded metric: pIC50

>>> quantitative_result("CC[C@H](C)[C@H](NC(=O)[C@H](CO)NC(=O)[C@@H](NC(=O)CNC(=O)[C@H](CCC(=O)O)NC(=O)[C@@H]1CCCN1C(=O)[C@@H]1CCCN1C(=O)[C@H](Cc1ccccc1)NC(=O)[C@H](CC(C)C)NC(=O)[C@H](C)N)C(C)C)C(=O)O [Peptide 1419.6]")
6.56
>>> quantitative_result("CC(C)C[C@H](NC(=O)[C@@H](NC(=O)[C@H](CC(C)C)NC(=O)[C@@H](N)Cc1ccccc1)[C@@H](C)O)C(=O)N[C@@H](CO)C(=O)N[C@H](C(=O)N[C@H](C(=O)N[C@@H](Cc1c[nH]c2ccccc12)C(=O)N[C@H](C(=O)O)C(C)C)[C@@H](C)O)C(C)C [Peptide 60.0216]")
7.28
>>> quantitative_result("CC(C)C[C@H](NC(=O)[C@H](CC(C)C)NC(=O)CNC(=O)[C@H](CC(N)=O)NC(=O)[C@H](Cc1ccc(O)cc1)NC(=O)[C@@H](NC(=O)[C@H](CC(=O)O)NC(=O)[C@H](CC(C)C)NC(=O)[C@H](C)N)C(C)C)C(=O)O [Peptide 1177.02]")
7.14
>>> quantitative_result("CC(C)C[C@H](NC(=O)[C@H](Cc1ccccc1)NC(=O)[C@H](CC(C)C)NC(=O)[C@H](Cc1ccccc1)NC(=O)CNC(=O)[C@H](CC(C)C)NC(=O)[C@H](CO)NC(=O)[C@H](CC(C)C)NC(=O)[C@H](CO)NC(=O)[C@H](C)NC(=O)[C@H](C)N)C(=O)O [Peptide 63.0137]")
6.64

* * *

target: HLA-A*0203 (Homo sapiens, UniProt P04439, A173T/D140Y/D185E/D98H/E277Q/G131W/G231S/I119V/I121R/I166T/I218V/L180W/L300P/L318F/N151K/N90K/P208A/P217A/Q86G/Q94H/R138H/R169H/T345S); experiment: HLA class I binding assay, purified HLA, inhibition of 125I-labelled probe peptide; settings: A*[…], A2 supermotif cross-reactive binding data
pIC50: −log10 of the molar value.
t means recorded pIC50 is 8 or above; f means it is below 8.

>>> class("CC[C@H](C)[C@H](N)C(=O)N[C@H](C(=O)N[C@@H](CC(C)C)C(=O)N[C@@H](CO)C(=O)N[C@H](C(=O)NCC(=O)N[C@@H](CS)C(=O)N[C@H](C(=O)NCC(=O)N[C@@H](C)C(=O)N[C@H](C(=O)O)C(C)C)[C@@H](C)O)C(C)C)[C@@H](C)O [Peptide 1418.59]")
"f"
>>> class("CSCC[C@H](N)C(=O)N[C@@H](CC(C)C)C(=O)N[C@@H](CC(C)C)C(=O)N[C@@H](CCCNC(=N)N)C(=O)N[C@@H](CC(C)C)C(=O)N[C@@H](CO)C(=O)N[C@@H](CCC(=O)O)C(=O)N1CCC[C@H]1C(=O)N[C@@H](C)C(=O)N[C@@H](CCC(=O)O)C(=O)N[C@H](C(=O)O)C(C)C [Peptide 1389.12]")
"f"
>>> class("CSCC[C@H](NC(=O)[C@H](Cc1ccccc1)NC(=O)[C@H](CCC(=O)O)NC(=O)[C@@H](NC(=O)[C@@H](NC(=O)[C@@H](N)CCCCN)C(C)C)[C@@H](C)O)C(=O)N[C@@H](CC(C)C)C(=O)N[C@@H](CS)C(=O)N[C@H](C(=O)O)C(C)C [Peptide 1418.21]")
"f"
>>> class("CC(C)C[C@H](NC(=O)[C@H](CO)NC(=O)[C@@H](NC(=O)[C@H](CS)NC(=O)[C@H](CCC(N)=O)NC(=O)[C@H](CC(C)C)NC(=O)[C@@H](N)CO)C(C)C)C(=O)N[C@@H](Cc1c[nH]cn1)C(=O)N[C@@H](CC(C)C)C(=O)N[C@H](C(=O)O)C(C)C [Peptide 1418.52]")
"t"
>>> class("CC[C@H](C)[C@H](N)C(=O)N[C@@H](CC(C)C)C(=O)N[C@@H](CC(C)C)C(=O)N[C@@H](CO)C(=O)N[C@H](C(=O)NCC(=O)N[C@@H](CS)C(=O)N[C@H](C(=O)NCC(=O)N[C@@H](C)C(=O)N[C@H](C(=O)O)C(C)C)[C@@H](C)O)C(C)C [Peptide 1418.57]")
"f"
>>> class("CC(C)C[C@H](NC(=O)[C@H](CO)NC(=O)[C@H](CC(C)C)NC(=O)[C@H](CO)NC(=O)[C@H](C)NC(=O)[C@H](C)NC(=O)[C@H](CCCNC(=N)N)NC(=O)[C@H](C)NC(=O)[C@H](CC(C)C)NC(=O)[C@H](CC(C)C)NC(=O)[C@@H](N)CC(C)C)C(=O)O [Peptide 63.0136]")
"t"
>>> class("CC(C)C[C@H](NC(=O)[C@H](CC(=O)O)NC(=O)CNC(=O)[C@H](CCC(=O)O)NC(=O)[C@@H]1CCCN1C(=O)[C@@H](NC(=O)CN)[C@@H](C)O)C(=O)N[C@H](C(=O)N[C@@H](Cc1ccc(O)cc1)C(=O)N[C@H](C(=O)O)C(C)C)C(C)C [Peptide 1418.29]")
"f"
>>> class("CC(C)[C@H](NC(=O)[C@@H]1CCCN1C(=O)[C@@H](NC(=O)[C@H](C)NC(=O)CNC(=O)[C@@H](NC(=O)[C@H](CS)NC(=O)CNC(=O)[C@@H](NC(=O)[C@@H](N)CO)C(C)C)[C@@H](C)O)C(C)C)C(=O)O [Peptide 1418.35]")
"f"
>>> class("CSCC[C@H](NC(=O)[C@H](CC(=O)O)NC(=O)[C@H](CC(N)=O)NC(=O)[C@H](CO)NC(=O)[C@H](CC(C)C)NC(=O)[C@H](CC(C)C)NC(=O)[C@@H](N)Cc1c[nH]cn1)C(=O)N[C@@H](CS)C(=O)N[C@@H](C)C(=O)N[C@@H](CCCNC(=N)N)C(=O)N[C@@H](C)C(=O)O [Peptide 1419.15]")
"f"
>>> class("CSCC[C@H](NC(=O)[C@@H](N)Cc1ccccc1)C(=O)N[C@@H](CC(C)C)C(=O)N[C@@H](CS)C(=O)N[C@@H](C)C(=O)NCC(=O)N[C@@H](CC(C)C)C(=O)N[C@@H](Cc1c[nH]c2ccccc12)C(=O)N[C@H](C(=O)O)C(C)C [Peptide 1418.22]")
"f"
>>> class("CC(C)C[C@H](NC(=O)[C@H](CC(C)C)NC(=O)[C@@H](N)CO)C(=O)N[C@@H](C)C(=O)N[C@@H](CCCCN)C(=O)N[C@@H](CCC(=O)O)C(=O)N[C@@H](CC(C)C)C(=O)N[C@@H](CCCCN)C(=O)N[C@@H](Cc1ccccc1)C(=O)N[C@H](C(=O)O)C(C)C [Peptide 63.0033]")
"t"
>>> class("CC(C)C[C@H](NC(=O)[C@H](Cc1c[nH]cn1)NC(=O)[C@H](CC(C)C)NC(=O)[C@H](CO)NC(=O)[C@@H](NC(=O)[C@H](CS)NC(=O)[C@H](CCC(N)=O)NC(=O)[C@H](CC(C)C)NC(=O)[C@@H](N)CO)C(C)C)C(=O)O [Peptide 60.0191]")
"f"
>>> class("CC[C@H](C)[C@H](NC(=O)[C@@H]1CCCN1C(=O)[C@H](CCC(N)=O)NC(=O)[C@H](Cc1c[nH]c2ccccc12)NC(=O)[C@H](CC(C)C)NC(=O)[C@H](CC(C)C)NC(=O)[C@H](CC(C)C)NC(=O)[C@@H]1CCCN1)C(=O)N1CCC[C@H]1C(=O)N[C@H](C(=O)O)C(C)C [Peptide 63.0042]")
"f"
